Assay: Biodistribution in ddY mice
Assay type: in vivo
Conditions: i.v. co-injection, 10 min
measured.metric: Radioactivity in Stomach

Problem: Would you mind telling me what Radioactivity in Stomach value was observed for COCCOc1ccc2c(c1)ncn2-c1ccc2cccc(N3CCC(NC(=O)c4cccc([77Br])c4)CC3)c2n1 [[^77Br]3] ?
Result: 1.31 (0.22) %injected dose /organ

Problem: How about this compound: COCCOc1ccc2c(c1)ncn2-c1ccc2c([125I])ccc(N3CCC(N)CC3)c2n1 [[^125I]4, reference compound]
Result: 1.66 (0.11) %injected dose /organ

Problem: Entry COCCOc1ccc2c(c1)ncn2-c1ccc2cccc(N3CCC(NC(=O)c4cccc([125I])c4)CC3)c2n1 [[^125I]5, reference compound] please
Result: 2.09 (1.12) %injected dose /organ

Problem: Also need COCCOc1ccc2c(c1)ncn2-c1ccc2c([77Br])ccc(N3CCC(N)CC3)c2n1 [[^77Br]2] , thanks.
Result: 1.74 (0.15) %injected dose /organ
